test system: CEM cells HIV-1 protection, formazan growth assay; test: NCI AIDS Antiviral Assay
Activity calls are given as the source filed them.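 Rule for the calls: active = compounds giving half or more protection of infected cells from virus-caused growth loss, again on retest; inactive = the rest.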
Recorded Endpoint: outcome

>  <Molecule>
CCN(C(=O)N[C@H](C(=O)N[C@@H](CSC)C(=O)N[C@@H](C)C(=O)OC)C(C)C)c1ccccc1

>  <Recorded Measurement>
inactive

$$$$
>  <Molecule>
CCN1C[C@]2(OC(=O)c3ccccc3NC(C)=O)CCC(OC)C34[C@@H]1[C@@](O)(C[C@@H]32)[C@@]1(O)C[C@H](OC)[C@@H]2C[C@@H]4[C@]1(O)C2OC (stereo not given in full)

>  <Recorded Measurement>
inactive

$$$$
>  <Molecule>
CN(/C(=N\O)c1ccccc1)c1ccccc1

>  <Recorded Measurement>
inactive

$$$$
>  <Molecule>
CC(=O)c1sc(Nc2ccc(Cl)c(Cl)c2)nc1C

>  <Recorded Measurement>
inactive

$$$$
>  <Molecule>
C1CCC2(CC1)CCN(CCCN1CCOCC1)CC2

>  <Recorded Measurement>
inactive

$$$$
